test system: elastic fibers of the dermis; assay: morphometric quantification of elastic fibers in skin explants; type: cell-based, Human; conditions: D1; applied twice per day, 5 μL per explant
attribute measured: Morphometric quantification of elastic fibers in the middle dermis (%)
# unit: % | format: bare number

Reference set, count: 3
# sequence entry, scale unit, endpoint result
records = [
    ("VLLEQQEQEPQH [0723.05]", "%", 8.8),
    ("RHGEWRPSY [0723.01]", "%", 7.59),
    ("RPYYSNAPQEIF [0723.04]", "%", 5.22),
]

Entry HPVAITASSNLNLLGFG [0723.02] : reported Morphometric quantification of elastic fibers in the middle dermis (%) = ?
11.75

Next sequence up: EDLRLVDLVIPVNGPGKFE [0723.06]
4.54

Source listed as patent US20180291070A1.
